From: the supplement of paper PMC10724198

# System: Saccharomyces cerevisiae
# Protocol summary: protein stability index of tFT-peptide fusion (C-terminal peptide) (PSI (0-1 scale)); higher = more stable (slower turnover)
# Assay setup: genetic background: wild type; temperature: 30 C
Can you tell me protein stability index for the items I'm about to list?
Give bare numbers.

• QSLVESPPPYVP [SNA4 C-terminal 12 aa] = 0.7
• RRRLTYHRYHPK [YML009C-A C-terminal 12 aa] = 0.722
• IFSSLVHYCNAG [LST4 C-terminal 12 aa] = 0.73
• NSLIFDAFNQIR [CDH1 C-terminal 12 aa] = 0.736
• EWAEENADNVEW [RPS0A C-terminal 12 aa] = 0.728

Which protein stability index is reported for this sequence? FDELVRKYDTSN [SEC28 C-terminal 12 aa]
0.665

* * *

# Tested on: Saccharomyces cerevisiae
# Protocol summary: protein stability index of tFT-peptide fusion in wild type (PSI (0-1 scale)); higher = more stable (slower turnover)
# Assay setup: genetic background: wild type
Quantity name: protein stability index
Numbers only.

A selection of reference data follows.
- RLIRPLPVQFLN: 0.0343
- RSLRHLLPLYFR: 0.45
- LKILRQKMDHQN: 0.613
- RSLRVLLPMYFR: 0.334

Quick request: protein stability index for each listed item, please.
1. CCSCGYKFRTNN
2. CTSLGYKFRTNN
3. FMMRWTFRYWVN

0.226
0.17
0.0399

* * *

Kindly state protein stability index for each of the entries shown.
# System: Saccharomyces cerevisiae
# Protocol summary: protein stability index of tFT-peptide fusion (C-terminal peptide) (PSI (0-1 scale)); higher = more stable (slower turnover)
# Assay setup: genetic background: wild type; temperature: 30 C
Give bare numbers.

* VVNNRRQSRTPK [BLI1 C-terminal 12 aa] | 0.661
* GRVDFQSTSKFT [AIM24 C-terminal 12 aa] | 0.704
* EKPEGKDTKTEE [CMK1 C-terminal 12 aa] | 0.684

Hi, could you look up protein stability index for each item in my list?
1. ESTTDAESKGSK [MRPL11 C-terminal 12 aa]
2. RDRLVESCHFTQ [CIN4 C-terminal 12 aa]
3. QKDSRGKKKIKK [YMR114C C-terminal 12 aa]

0.706
0.706
0.636

* * *

# Test system: Saccharomyces cerevisiae
# Protocol summary: protein stability index of tFT-peptide fusion (C-terminal peptide) (PSI (0-1 scale)); higher = more stable (slower turnover)
# Assay setup: genetic background: doa10 deletion; temperature: 30 C
Output rule met for protein stability index not less than 0.3; output rule not met otherwise.

Before answering, review these 6 worked examples.
* LHLTFRLAVLYY | rule met
* LVGLESCGERAG | rule met
* LLGDFAVLTCVF | rule met
* AKVFGLILVLLT | rule not met
* RSIVFRVSRRLN | rule not met
* FVEFCFWCFWVV | rule met

Confirm if protein stability index reported for the sequence `MSCILFCCLVPF` is 0.3 or above.
rule met

Please check the record `RLDAPGLSRTEN` and state if its protein stability index is at or above 0.3.
rule met

Form field: protein stability index at least 0.3? Entry: `FRHKLSLGLVIV`
rule met

Record `GWMLVVWCGVFG` ; criterion: protein stability index no lower than 0.3. Met?
rule not met

Is protein stability index for `RLVVSRNFYRLC` at or above 0.3?
rule not met

API: above_or_equal(metric=protein stability index, cutoff=0.3) for item `IYLLLFFFSFSA`
rule met

Textbook exercise: given the entry `KQSGLQIKRRKL` , state whether its protein stability index is greater than or equal to 0.3.
rule met

# check: protein stability index of `IFFFQFLWFCLS` is greater than or equal to 0.3
rule not met

Does the reported protein stability index for `SDAIKITFIIHN` fall at or above the 0.3 mark?
rule met

Is protein stability index for `VRRGAVWCCLCG` at or above 0.3?
rule met
